Molecular target: T1, Fur (Pseudomonas aeruginosa, UniProt Q03456 1-134)
T1 sequence: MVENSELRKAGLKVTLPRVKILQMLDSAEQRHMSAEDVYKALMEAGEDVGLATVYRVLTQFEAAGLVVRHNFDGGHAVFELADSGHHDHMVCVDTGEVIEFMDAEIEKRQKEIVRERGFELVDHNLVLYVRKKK
Assay: fluorescence anisotropy
observation_type: Kd (nM)
Report only the number, with the unit nM understood.

Query: Please report Kd for the following binder: prrF1-30 (dsDNA) DNA 1: GACATGGAAATGAGAATCATTATTATGTC DNA 2: GACATAATAATGATTCTCATTTCCATGTC
Reply: 50
